Measured Target: Lysosomal alpha-glucosidase (Homo sapiens)
Protocol Text: Confirmation of Inhibitors and Activators of Human alpha-Glucosidase From Spleen Homogenate Using an Alternate Red Fluorescent Susbtrate
Condition: resorufin-glucoside fluorescence; series mostly up to 62.8 µM
The source made the active and inactive calls. The call rests on the fitted dose curve; in most records, active means well fitted curve in either direction with a large enough effect; inconclusive means small, poorly fitted or top-dose-only effect; inactive means no such curve, though single readings can be large or run the other way.
Select the correct class. Options are 1.0 (active), 0.0 (inactive) and nothing else.

Answered examples (6):
- Smiles Representation: "COc1ccc(CCn2c3c(c(=O)[nH]c2=S)CN(c2ccccc2)CN3)cc1OC"
  Class Assignment: 1.0
- Smiles Representation: "CCCN1CNc2c(c(=O)[nH]c(=S)n2CCc2ccc(OCC)c(OCC)c2)C1"
  Class Assignment: 1.0
- Smiles Representation: "O=C1Cc2cc(S(=O)(=O)N3CCN(c4cccc(C(F)(F)F)c4)CC3)ccc2N1"
  Class Assignment: 1.0
- Smiles Representation: "COc1ccc(N2CCN(S(=O)(=O)c3ccc4c(c3)CC(=O)N4)CC2)cc1"
  Class Assignment: 1.0
- Smiles Representation: "O=C1Cc2cc(S(=O)(=O)N3CCN(c4ccc(Cl)cc4)CC3)ccc2N1"
  Class Assignment: 0.0
- Smiles Representation: "COc1ccc(CCn2c3c(c(=O)[nH]c2=S)CN(Cc2ccccc2)CN3)cc1OC"
  Class Assignment: 1.0

Exam item: Hi team, can someone confirm the assay call for N#Cc1ccc(N2CCN(S(=O)(=O)c3ccc4c(c3)CC(=O)N4)CC2)cc1 ?
Marked response: 1.0

Exam item: Which outcome was entered for the compound CCCN1CNc2c(c(=O)[nH]c(=S)n2CCc2ccc(C)cc2C)C1 in this test?
Marked response: 1.0

Exam item: # lookup: test call for CC(=O)c1ccc(N2CCN(S(=O)(=O)c3ccc4c(c3)CCCC(=O)N4)CC2)cc1
Marked response: 0.0

Exam item: In this assay, the call recorded for COc1ccc(CCn2c3c(c(=O)[nH]c2=S)CN(CC(C)C)CN3)cc1OC was what?
Marked response: 1.0
